Assay: Stability test of crystalline forms (high temperature, high humidity, irradiation; HPLC purity and crystal form)
Format: physicochemical
Details: High temperature 60° C., open container, Day 0
Description: Test samples were put into an open and proper clean container, and left to stand at 60° C. for 10 days. Samples were collected on day 5 and day 10; Test samples were put into a closed humid container, and left to stand at 92.5%±5% RH/25° C. for 10 days. Samples were collected on day 5 and day 10; Test samples were put into a lighting box or other suitable lighting devices (open) with fluorescent lamps at 4500 1×±500 1× for 10 days. Samples were collected on day 5 and day 10. […]

- COMPOUND: "CC1(C)CCC(CN2CCN(c3ccc(C(=O)NS(=O)(=O)c4ccc(NC[C@H]5COCCO5)c([N+](=O)[O-])c4)c(Oc4cnc5[nH]ccc5c4)c3)CC2)=C(c2ccc(C(F)(F)F)cc2Cl)C1 [Crystalline form E]"
  SCALE UNIT: "%"
  Purity: 98.02
- COMPOUND: "CC1(C)CCC(CN2CCN(c3ccc(C(=O)NS(=O)(=O)c4ccc(NC[C@H]5COCCO5)c([N+](=O)[O-])c4)c(Oc4cnc5[nH]ccc5c4)c3)CC2)=C(c2ccc(C(F)(F)F)cc2Cl)C1 [Crystalline form C]"
  SCALE UNIT: "%"
  Purity: 98.56

###

Assay: Stability test of crystalline forms (high temperature, high humidity, irradiation; HPLC purity and crystal form)
Format: physicochemical
Settings: Irradiation 4500 ± 500 lx, Day 10
Protocol: Test samples were put into an open and proper clean container, and left to stand at 60° C. for 10 days. Samples were collected on day 5 and day 10; Test samples were put into a closed humid container, and left to stand at 92.5%±5% RH/25° C. for 10 days. Samples were collected on day 5 and day 10; Test samples were put into a lighting box or other suitable lighting devices (open) with fluorescent lamps at 4500 1×±500 1× for 10 days. Samples were collected on day 5 and day 10. […]

- MOLECULE: "CC1(C)CCC(CN2CCN(c3ccc(C(=O)NS(=O)(=O)c4ccc(NC[C@H]5COCCO5)c([N+](=O)[O-])c4)c(Oc4cnc5[nH]ccc5c4)c3)CC2)=C(c2ccc(C(F)(F)F)cc2Cl)C1 [Amorphous form]"
  Purity, %: 93.83
- MOLECULE: "CC1(C)CCC(CN2CCN(c3ccc(C(=O)NS(=O)(=O)c4ccc(NC[C@H]5COCCO5)c([N+](=O)[O-])c4)c(Oc4cnc5[nH]ccc5c4)c3)CC2)=C(c2ccc(C(F)(F)F)cc2Cl)C1 [Crystalline form A]"
  Purity, %: 96.62
- MOLECULE: "CC1(C)CCC(CN2CCN(c3ccc(C(=O)NS(=O)(=O)c4ccc(NC[C@H]5COCCO5)c([N+](=O)[O-])c4)c(Oc4cnc5[nH]ccc5c4)c3)CC2)=C(c2ccc(C(F)(F)F)cc2Cl)C1 [Crystalline form B]"
  Purity, %: 97.68
- MOLECULE: "CC1(C)CCC(CN2CCN(c3ccc(C(=O)NS(=O)(=O)c4ccc(NC[C@H]5COCCO5)c([N+](=O)[O-])c4)c(Oc4cnc5[nH]ccc5c4)c3)CC2)=C(c2ccc(C(F)(F)F)cc2Cl)C1 [Crystalline form C]"
  Purity, %: 98.15
- MOLECULE: "CC1(C)CCC(CN2CCN(c3ccc(C(=O)NS(=O)(=O)c4ccc(NC[C@H]5COCCO5)c([N+](=O)[O-])c4)c(Oc4cnc5[nH]ccc5c4)c3)CC2)=C(c2ccc(C(F)(F)F)cc2Cl)C1 [Crystalline form E]"
  Purity, %: 97.71

###

assay: Stability test of crystalline forms (high temperature, high humidity, irradiation; HPLC purity and crystal form); assay type: physicochemical; details: High temperature 60° C., open container, Day 10
# Purity per record follows
PROPERTY LABEL: Purity (%)

- MOLECULE: "CC1(C)CCC(CN2CCN(c3ccc(C(=O)NS(=O)(=O)c4ccc(NC[C@H]5COCCO5)c([N+](=O)[O-])c4)c(Oc4cnc5[nH]ccc5c4)c3)CC2)=C(c2ccc(C(F)(F)F)cc2Cl)C1 [Crystalline form E]"
  VALUE MEASURED: 97.88
- MOLECULE: "CC1(C)CCC(CN2CCN(c3ccc(C(=O)NS(=O)(=O)c4ccc(NC[C@H]5COCCO5)c([N+](=O)[O-])c4)c(Oc4cnc5[nH]ccc5c4)c3)CC2)=C(c2ccc(C(F)(F)F)cc2Cl)C1 [Amorphous form]"
  VALUE MEASURED: 97.33
- MOLECULE: "CC1(C)CCC(CN2CCN(c3ccc(C(=O)NS(=O)(=O)c4ccc(NC[C@H]5COCCO5)c([N+](=O)[O-])c4)c(Oc4cnc5[nH]ccc5c4)c3)CC2)=C(c2ccc(C(F)(F)F)cc2Cl)C1 [Crystalline form B]"
  VALUE MEASURED: 98.22
- MOLECULE: "CC1(C)CCC(CN2CCN(c3ccc(C(=O)NS(=O)(=O)c4ccc(NC[C@H]5COCCO5)c([N+](=O)[O-])c4)c(Oc4cnc5[nH]ccc5c4)c3)CC2)=C(c2ccc(C(F)(F)F)cc2Cl)C1 [Crystalline form A]"
  VALUE MEASURED: 97.17
- MOLECULE: "CC1(C)CCC(CN2CCN(c3ccc(C(=O)NS(=O)(=O)c4ccc(NC[C@H]5COCCO5)c([N+](=O)[O-])c4)c(Oc4cnc5[nH]ccc5c4)c3)CC2)=C(c2ccc(C(F)(F)F)cc2Cl)C1 [Crystalline form C]"
  VALUE MEASURED: 97.31

Data origin: patent US12545674B2
